Numbers sourced from patent US10399988B2.

The following compounds each carry a recorded pIC50 for BTK (Homo sapiens, UniProt Q06187).
Bear in mind: pIC50 is minus log10 of a mol/L concentration; give just that figure.

Observe how each entry below is paired with its result.
Incoming: API: value(readout=pIC50, system=BTK (Homo sapiens, UniProt Q06187)) for record C=CC(=O)N1CC2CC1C(n1nc(-c3ccc(Oc4ccccc4)cc3F)c3c(N)ncnc31)C2 (stereo not shown) [Ex. 35]
Outgoing: 8.66

Incoming: # get_value(readout= pIC50, system= BTK (Homo sapiens, UniProt Q06187)) for Nc1ncnc2c1c(-c1ccc(Oc3ccccc3)cc1)nn2C1CC2CC1CN2C(=O)/C=C/CN1CCCCC1 (stereo not shown) [Ex. 66]
Outgoing: 7.30

Incoming: Tell me reported pIC50 for C=CC(=O)N1C[C@@H]2C[C@@H]1[C@@H](n1nc(-c3ccc(C(=O)Nc4ccccn4)cc3)c3c(N)ncnc31)C2 [Ex. 69] , tested with BTK (Homo sapiens, UniProt Q06187).
Sequence (Q06187 whole entry): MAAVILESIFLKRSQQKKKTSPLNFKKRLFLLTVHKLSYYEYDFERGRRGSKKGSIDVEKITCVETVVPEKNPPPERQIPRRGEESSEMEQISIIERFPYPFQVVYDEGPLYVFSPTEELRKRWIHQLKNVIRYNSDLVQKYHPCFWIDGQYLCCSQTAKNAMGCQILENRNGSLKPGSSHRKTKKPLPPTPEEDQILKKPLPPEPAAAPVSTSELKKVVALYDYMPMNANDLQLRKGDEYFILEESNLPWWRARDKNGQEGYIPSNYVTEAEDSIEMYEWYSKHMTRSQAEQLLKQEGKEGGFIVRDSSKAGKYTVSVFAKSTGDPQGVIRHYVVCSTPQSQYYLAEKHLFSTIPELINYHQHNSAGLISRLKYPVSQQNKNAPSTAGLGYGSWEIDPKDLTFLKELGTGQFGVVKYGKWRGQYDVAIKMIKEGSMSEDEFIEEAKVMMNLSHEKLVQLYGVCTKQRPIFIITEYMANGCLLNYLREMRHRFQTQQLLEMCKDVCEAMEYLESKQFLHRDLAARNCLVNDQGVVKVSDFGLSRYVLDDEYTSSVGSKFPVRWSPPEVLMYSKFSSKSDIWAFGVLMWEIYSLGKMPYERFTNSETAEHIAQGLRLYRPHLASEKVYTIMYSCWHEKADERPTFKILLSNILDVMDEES
Outgoing: 8.89

Incoming: Enter reported pIC50 observed with BTK (Homo sapiens, UniProt Q06187) for C=CC(=O)N1CC2CC1C(n1nc(-c3ccc(C(=O)Nc4ccccc4)cc3)c3c(N)ncnc31)C2 (stereo not shown) [Ex. 19]
Outgoing: 7.97

Continuing:
Incoming: Missing value: pIC50, BTK (Homo sapiens, UniProt Q06187), entry Nc1ncnc2c1c(-c1ccc(Oc3ccccc3)cc1)nn2C1CC2CC1N(C(=O)C#CC1CC1)C2 (stereo not shown) [Ex. 28] . Fill in?
Outgoing: 7.60

Incoming: Record C=CC(=O)N1CC2CC1C(n1nc(-c3ccc(NC(=O)c4ccccc4N(C)C)cc3)c3c(N)ncnc31)C2 (stereo not shown) [Ex. 57] : what is its pIC50 with BTK (Homo sapiens, UniProt Q06187)?
Outgoing: 8.06

Incoming: What pIC50 appears in the records for this compound with BTK (Homo sapiens, UniProt Q06187)? CN1CCN(C/C=C/C(=O)N2CC3CC2C(n2nc(-c4ccc(C(=O)Nc5ccccn5)cc4)c4c(N)ncnc42)C3)CC1 (stereo not shown) [Ex. 61]
Outgoing: 6.87

Incoming: Item C#CC(=O)N1CC2CC1C(n1nc(-c3cccc(C(=O)Nc4ccc(C(C)C)c(C)c4)c3)c3c(N)ncnc31)C2 (stereo not shown) [Ex. 9] with BTK (Homo sapiens, UniProt Q06187) - pIC50?
Outgoing: 7.27

Incoming: # returns recorded pIC50 (system: BTK (Homo sapiens, UniProt Q06187)) for C#CC(=O)N1C[C@@H]2C[C@H]1C[C@H]2n1nc(-c2ccc(Oc3ccccc3)cc2)c2c(N)ncnc21 [Ex. 13]
Outgoing: 8.70

Incoming: Query for BTK (Homo sapiens, UniProt Q06187): what pIC50 does the record show for C=CC(=O)N1CC2CC1C(n1nc(-c3ccc(C(=O)Nc4ccccc4N(C)C)cc3)c3c(N)ncnc31)C2 (stereo not shown) [Ex. 55] ?
Outgoing: 8.07
